TESTED SYSTEM: T1, OsHOS59 aa 1-100 (Oryza sativa, UniProt Q94LW4 113-212)
T1 construct: bait, Gal4 DBD fusion; also called PN20559; O. sativa Homeobox Protein HOS59, Fragment
T1 sequence: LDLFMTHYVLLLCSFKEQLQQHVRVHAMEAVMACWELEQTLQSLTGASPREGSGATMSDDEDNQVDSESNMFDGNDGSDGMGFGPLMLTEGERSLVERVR
PROCEDURE TEXT: Y2H; output trait library
PROPERTY: binding result

BINDER: OsPN23830 aa 1-169 (other, prey, AD fusion) MGFLEDFQASVEALPAMLQRNYSLMRELDKSLQGVQTGNEQRCQQEIEDIKHGLESGSITYDPAKLKFSDEAIEEQKHCVRIADEKVALASQTYDLVDAHIQQLDQFMRKLEELRQEKEAATTAAAAAAAAAASVATGTPVAATVTASAGTSTADNTPKGGRSSERGRG
RESULT: binds
//
BINDER: OsPN24092 aa 797-948 (other, prey, AD fusion; also called Novel Protein PN24092, Similar to O. sativa Putative Myosin) SIKDQVQTYLEEINTLKSSKNEKEEMIERLQSEIRSLKFEYDNLKILMSTNDSEKHNLASQVLKLRRALESREDVKQNGVKSDEDNHHATSKRIKHDDGTTGSRNVLPSTNRHNANGDCNGHDRRDAAHDQSVKELEILKERNTALEEELKE
RESULT: binds
//
BINDER: OsPN23830 aa 4-207 (other, prey, AD fusion; also called Novel Protein PN23830, Similar to A. thaliana Putative PHD-Finger Protein) LEDFQASVEALPAMLQRNYSLMRELDKSLQGVQTGNEQRCQQEIEDIKHGLESGSITYDPAKLKFSDEAIEEQKHCVRIADEKVALASQTYDLVDAHIQQLDQFMRKLEELRQEKEAATTAAAAAAAAAASVATGTPVAATVTASAGTSTADNTPKGGRSSERGRGGRKKTAKVPTEQPAPAIDLELPVDPNEPTYCLCNQVSY
RESULT: binds

These data points were gathered from patent US20060253917A1.
